System: normal human epidermal keratinocytes (NHEK)
Assay: Toxicity against human skin cells, MTT-assay
Assay type: cell-based
Details: photodynamic activity (light toxicity), 0.1 μM, illumination 15 min
Protocol: Test compounds were screened for toxicity against cultured human skin cells using normal human epidermal keratinocytes (NHEK) and normal human dermal fibroblasts (NHDF), purchased from CellSystems Biotechnologie GmbH, Germany. […] Phototoxicity was tested by standard MTT-assay (Mossman et al., 1983, Immunological Methods 65:55-63). […] Dependent on enzyme activity in mitochondria a colour reaction can be visualised, which can be measured by ELISA reader (540 nm). […]
endpoint: Survival

- compound: "C[N+](C)(C)CCCOc1cccc(-c2c3nc(cc4ccc([nH]4)c(-c4cccc(OCCC[N+](C)(C)C)c4)c4nc(cc5ccc2[nH]5)C=C4)C=C3)c1.[Cl-].[Cl-]"
  result: "75%"
- compound: "C[N+](C)(C)CCCOc1ccc(-c2c3nc(cc4ccc([nH]4)c(-c4ccc(OCCC[N+](C)(C)C)cc4)c4nc(cc5ccc2[nH]5)C=C4)C=C3)cc1.[Cl-].[Cl-]"
  result: "1.0%"
- compound: "C[N+](C)(C)CCCOc1ccc(-c2c3nc(c(-c4ccc(OCCC[N+](C)(C)C)cc4)c4ccc([nH]4)c(-c4ccc(OCCC[N+](C)(C)C)cc4)c4nc(c(-c5ccc(OCCC[N+](C)(C)C)cc5)c5ccc2[nH]5)C=C4)C=C3)cc1.[Cl-].[Cl-].[Cl-].[Cl-] [Compound 1, reference compound]"
  result: "52%"

Read the next record carefully.
Q. I am curious: what Survival value has been reported for CN(C)CCC[N+](C)(C)CCCOc1ccc(-c2c3nc(cc4ccc([nH]4)c(-c4ccc(OCCC[N+](C)(C)CCCN(C)C)cc4)c4nc(cc5ccc2[nH]5)C=C4)C=C3)cc1.[Cl-].[Cl-] ?
A. 33%

----------
tested on: Staphylococcus aureus (methicillin-resistant strain ATTC BAA-44); test: Initial screening: growth inhibition after white light illumination; type: cell-based; details: Staphylococcus aureus, BAA44, 5 min, read-out: Growth inhibition (%), S. aureus, 5 min incubation, illumination time 5 min
endpoint: inhibition at 3 µM (%)
Answers are plain numbers, in %.

- compound: "CN(C)CCC[N+](C)(C)CCCOc1ccc(-c2c3nc(cc4ccc([nH]4)c(-c4ccc(OCCC[N+](C)(C)CCCN(C)C)cc4)c4nc(cc5ccc2[nH]5)C=C4)C=C3)cc1.[Cl-].[Cl-]"
  uom: "%"
  inhibition at 3 µM: 100
- compound: "CCCCCCCCCCCOc1ccc(-c2c3nc(c(-c4ccc(OCCCCCCCCCCC)cc4)c4ccc([nH]4)c(-c4ccc(OCCC[N+](C)(C)C)cc4)c4nc(c(-c5ccc(OCCC[N+](C)(C)C)cc5)c5ccc2[nH]5)C=C4)C=C3)cc1 [Compound 29, reference compound]"
  uom: "%"
  inhibition at 3 µM: 49
- compound: "CCCCCCCCCCCOc1ccc(-c2c3nc(c(-c4ccc(OCCC[N+](CC)(CC)CC)cc4)c4ccc([nH]4)c(-c4ccc(OCCC[N+](CC)(CC)CC)cc4)c4nc(c(-c5ccc(OCCC[N+](CC)(CC)CC)cc5)c5ccc2[nH]5)C=C4)C=C3)cc1 [Compound 16, reference compound]"
  uom: "%"
  inhibition at 3 µM: 100

Q. Can you look up the measured inhibition at 3 µM of CCCCCCCCCCCOc1ccc(-c2c3nc(c(-c4ccc(OCCC[N+](C)(C)C)cc4)c4ccc([nH]4)c(-c4ccc(OCCC[N+](C)(C)C)cc4)c4nc(c(-c5ccc(OCCC[N+](C)(C)C)cc5)c5ccc2[nH]5)C=C4)C=C3)cc1.[Cl-].[Cl-].[Cl-] [Compound 3, reference compound] for me?
A. 100

----------
tested on: S. aureus ATCC BAA-44 (a methicillin resistant S. aureus); assay: Cell survival (colony forming unit) with or without illumination; type: cell-based, Staphylococcus aureus; details: photodynamic activity; S. aureus; 0.1 μM; illumination 15 min
Assignment: determine reported Log reduction for the given molecules.

Okay, here is my list. What is Log reduction for each of these?
1. C[N+](C)(C)CCCOc1cccc(-c2c3nc(cc4ccc([nH]4)c(-c4cccc(OCCC[N+](C)(C)C)c4)c4nc(cc5ccc2[nH]5)C=C4)C=C3)c1.[Cl-].[Cl-]
2. CN(C)CCC[N+](C)(C)CCCOc1ccc(-c2c3nc(cc4ccc([nH]4)c(-c4ccc(OCCC[N+](C)(C)CCCN(C)C)cc4)c4nc(cc5ccc2[nH]5)C=C4)C=C3)cc1.[Cl-].[Cl-]
3. C[N+](C)(C)CCCOc1ccc(-c2c3nc(c(-c4ccc(OCCC[N+](C)(C)C)cc4)c4ccc([nH]4)c(-c4ccc(OCCC[N+](C)(C)C)cc4)c4nc(c(-c5ccc(OCCC[N+](C)(C)C)cc5)c5ccc2[nH]5)C=C4)C=C3)cc1.[Cl-].[Cl-].[Cl-].[Cl-] [Compound 1, reference compound]
4. CCCCCCCCCCCc1c2nc(cc3ccc([nH]3)c(-c3cc(OCCC[N+](C)(C)C)cc(OCCC[N+](C)(C)C)c3)c3nc(cc4ccc1[nH]4)C=C3)C=C2.[Cl-].[Cl-]

A.
1. >3 (>10^−3)
2. 3 (10^−3)
3. <1 (<10^−1)
4. 3 (10^−3)

----------
system: Staphylococcus aureus (methicillin-resistant strain ATTC BAA-44); assay: Initial screening: growth inhibition after white light illumination; format: cell-based; settings: Staphylococcus aureus, BAA44, read-out: Growth inhibition (%), S. aureus, 5 min incubation, illumination time 15 min
Provide the reported inhibition at 3 µM of each item.
Give bare numbers, in %.

Consider the reported inhibition at 3 µM for these compounds:
- compound: "CN(C)CCC[N+](C)(C)CCCOc1ccc(-c2c3nc(cc4ccc([nH]4)c(-c4ccc(OCCC[N+](C)(C)CCCN(C)C)cc4)c4nc(cc5ccc2[nH]5)C=C4)C=C3)cc1.[Cl-].[Cl-]"
  endpoint: "inhibition at 3 µM"
  result number: 100
- compound: "CCCCCCCCCCCOc1ccc(-c2c3nc(c(-c4ccc(OCCC[N+](CC)(CC)CC)cc4)c4ccc([nH]4)c(-c4ccc(OCCC[N+](CC)(CC)CC)cc4)c4nc(c(-c5ccc(OCCC[N+](CC)(CC)CC)cc5)c5ccc2[nH]5)C=C4)C=C3)cc1 [Compound 16, reference compound]"
  endpoint: "inhibition at 3 µM"
  result number: 100
- compound: "CCCCCCCCCCCOc1ccc(-c2c3nc(c(-c4ccc(OCCC[N+](C)(C)C)cc4)c4ccc([nH]4)c(-c4ccc(OCCC[N+](C)(C)C)cc4)c4nc(c(-c5ccc(OCCC[N+](C)(C)C)cc5)c5ccc2[nH]5)C=C4)C=C3)cc1.[Cl-].[Cl-].[Cl-] [Compound 3, reference compound]"
  endpoint: "inhibition at 3 µM"
  result number: 100

Attention now turns to another entry.
Q. Please state recorded inhibition at 3 µM (tested on Staphylococcus aureus (methicillin-resistant strain ATTC BAA-44)) of CCCCCCCCCCCOc1ccc(-c2c3nc(c(-c4ccc(OCCCCCCCCCCC)cc4)c4ccc([nH]4)c(-c4ccc(OCCC[N+](C)(C)C)cc4)c4nc(c(-c5ccc(OCCC[N+](C)(C)C)cc5)c5ccc2[nH]5)C=C4)C=C3)cc1 [Compound 29, reference compound]
A. 55

----------
tested on: Staphylococcus aureus (methicillin-resistant strain ATTC BAA-44); experiment: Initial screening: growth inhibition after white light illumination; type: cell-based; details: Staphylococcus aureus, BAA44, read-out: Growth inhibition (%), S. aureus, 5 min incubation, illumination time 10 min
endpoint: inhibition at 3 µM

Use the examples below as a reference point.
- compound: "CN(C)CCC[N+](C)(C)CCCOc1ccc(-c2c3nc(cc4ccc([nH]4)c(-c4ccc(OCCC[N+](C)(C)CCCN(C)C)cc4)c4nc(cc5ccc2[nH]5)C=C4)C=C3)cc1.[Cl-].[Cl-]"
  inhibition at 3 µM: "100%"
- compound: "CCCCCCCCCCCOc1ccc(-c2c3nc(c(-c4ccc(OCCC[N+](C)(C)C)cc4)c4ccc([nH]4)c(-c4ccc(OCCC[N+](C)(C)C)cc4)c4nc(c(-c5ccc(OCCC[N+](C)(C)C)cc5)c5ccc2[nH]5)C=C4)C=C3)cc1.[Cl-].[Cl-].[Cl-] [Compound 3, reference compound]"
  inhibition at 3 µM: "100%"
- compound: "CCCCCCCCCCCOc1ccc(-c2c3nc(c(-c4ccc(OCCCCCCCCCCC)cc4)c4ccc([nH]4)c(-c4ccc(OCCC[N+](C)(C)C)cc4)c4nc(c(-c5ccc(OCCC[N+](C)(C)C)cc5)c5ccc2[nH]5)C=C4)C=C3)cc1 [Compound 29, reference compound]"
  inhibition at 3 µM: "53%"

// next item, inhibition at 3 µM requested
Q. Quick one: inhibition at 3 µM of CCCCCCCCCCCOc1ccc(-c2c3nc(c(-c4ccc(OCCC[N+](CC)(CC)CC)cc4)c4ccc([nH]4)c(-c4ccc(OCCC[N+](CC)(CC)CC)cc4)c4nc(c(-c5ccc(OCCC[N+](CC)(CC)CC)cc5)c5ccc2[nH]5)C=C4)C=C3)cc1 [Compound 16, reference compound] ?
A. 100%
